- assayText: Half life in rat at 4 mg/kg, po and 4 mg/kg, iv
- Format: ADME, organism-based
- experimentalConditions: in vivo
observable: half-life (h)
Answers are plain numbers, in h.

molSmiles: C[C@@H](Oc1ccc2c(c1)S(=O)(=O)N=C(c1c(O)c3cc(F)ccc3n(CCC3CC3)c1=O)N2)C(N)=O
reportedValue: 0.7
//
molSmiles: NC(=O)COc1ccc2c(c1)S(=O)(=O)NC(c1c(O)c3cc(F)ccc3n(CCC3CC3)c1=O)=N2
reportedValue: 1

Problem: Returns the measured half-life for the input compound. Input: O=c1c(C2=Nc3ccccc3S(=O)(=O)N2)c(O)c2cc(F)ccc2n1CCC1CC1
Result: 3

====

- System: Hepatitis C virus
- assayText: Antiviral activity against HCV 1b after 72 hrs by replicon assay in presence of HSA and AAG
- Format: functional, organism-based, Hepacivirus hominis
- experimentalConditions: genotype 1b
observable: pIC50
Numbers only, as −log10 of the molar value.

Could you tell me pIC50 for each of these compounds? They are listed below.
1. CC(C)CCn1c(=O)c(C2=NS(=O)(=O)c3cc(CC(N)=O)ccc3N2)c(O)c2cc(F)ccc21
2. N#CCOc1ccc2c(c1)S(=O)(=O)N=C(c1c(O)c3cc(F)ccc3n(CCC3CC3)c1=O)N2

Result:
5.51
5.62

====

- Tested on: Hepatitis C virus
- assayText: Antiviral activity against HCV 1b after 72 hrs by replicon assay in presence of HSA and AAG
- Format: functional, organism-based, Hepacivirus hominis
- experimentalConditions: genotype 1b
For each of the compounds below, state its IC50.

Hi, could you look up IC50 for each item in my list?
1. COc1ccc2c(c1)S(=O)(=O)N=C(c1c(O)c3cc(F)ccc3n(CCC3CC3)c1=O)N2
2. NC(=O)CCc1ccc2c(c1)S(=O)(=O)N=C(c1c(O)c3cc(F)ccc3n(CCC3CC3)c1=O)N2
3. CC(C)CCn1c(=O)c(C2=NS(=O)(=O)c3cc(Cl)ccc3N2)c(O)c2ccccc21

Result:
1: > 50 µM; 2: > 50 µM; 3: > 50 µM
